# Species: Rattus norvegicus
# ASSAY_TEXT: Reduction in triglyceride level in CFE rat […] in serum at 0.1% of diet treated through diet for 6 days relative to control
# Format: functional
# Set-up: scale not given: the % may be the effect or the level left
Listing of recorded Activity by entry.
OBSERVABLE: Activity (%)

MOLECULE: CCCCCCCCCCCCCCCCOc1c(Br)cc(C(=O)OC)cc1Br
OBSERVABLE: Activity
MEASURED_VALUE: 88

MOLECULE: CCCCNCCCCCCCCCCCOc1ccc(C(=O)OC)cc1.Cl
OBSERVABLE: Activity
MEASURED_VALUE: 66

MOLECULE: CCCCCCCCC/C=C/CCCOc1ccc(C(=O)O)cc1
OBSERVABLE: Activity
MEASURED_VALUE: 87

MOLECULE: CCCCCCCCCCCC(Cl)CCOc1ccc(C(=O)O)cc1 (stereo not given)
OBSERVABLE: Activity
MEASURED_VALUE: 47

MOLECULE: CCCCCCCCCCCC1OC1CCCOc1ccc(C(=O)O)cc1 (stereo not given)
OBSERVABLE: Activity
MEASURED_VALUE: 55

MOLECULE: CCCCCCCCCCC/C=C/CCCOc1ccc(C(=O)O)cc1
OBSERVABLE: Activity
MEASURED_VALUE: 59

MOLECULE: CCOCCCCCCCCCCCOc1ccc(C(=O)O)cc1
OBSERVABLE: Activity
MEASURED_VALUE: 63

MOLECULE: C=CCCCCCCCC/C=C/CCCOc1ccc(C(=O)O)cc1
OBSERVABLE: Activity
MEASURED_VALUE: 83

MOLECULE: CC(C)CCCC(C)CCCC(C)CCCC(C)CCOc1ccc(C(=O)O)cc1 (stereo not given)
OBSERVABLE: Activity
MEASURED_VALUE: 72

MOLECULE: COC(=O)c1ccc(OCC2(C34CC5CC(CC(C5)C3)C4)SCCS2)cc1
OBSERVABLE: Activity
MEASURED_VALUE: 112

MOLECULE: CCSCCCCCCCCCCCCCCCCOc1ccc(C(=O)O)cc1
OBSERVABLE: Activity
MEASURED_VALUE: 45

MOLECULE: CCCCCCCCCCCCC/C=C\COc1ccc(C(=O)O)cc1
OBSERVABLE: Activity
MEASURED_VALUE: 60

MOLECULE: CCCCCCCCCCCCCC(C)(C)Oc1ccc(C(=O)O)cc1
OBSERVABLE: Activity
MEASURED_VALUE: 83

MOLECULE: CCCCCCCCCCCC(CCOc1ccc(C(=O)OC)cc1)SC(C)=O (stereo not given)
OBSERVABLE: Activity
MEASURED_VALUE: 59

MOLECULE: CCCCCCCCCCCC(CCOc1ccc(C(=O)O)cc1)N=[N+]=[N-] (stereo not given)
OBSERVABLE: Activity
MEASURED_VALUE: 55

MOLECULE: O=C(O)c1ccc(OCC2CCCCCCCCCCC2)cc1
OBSERVABLE: Activity
MEASURED_VALUE: 160

MOLECULE: CC(C)=CCC/C(C)=C/CC/C(C)=C/COc1ccc(C(=O)O)cc1
OBSERVABLE: Activity
MEASURED_VALUE: 133

MOLECULE: COCCCCCCCCCCCOc1ccc(C(=O)OC)cc1
OBSERVABLE: Activity
MEASURED_VALUE: 36

MOLECULE: O=C(O)c1ccc(OCCCCCCCCCCCCCCCCS)cc1
OBSERVABLE: Activity
MEASURED_VALUE: 37

MOLECULE: O=C(O)c1ccc(OCCCCCCCCCCCCCCCOc2ccc(C(=O)O)cc2)cc1
OBSERVABLE: Activity
MEASURED_VALUE: 51

MOLECULE: CCCC[S+]([O-])CCCCCCCCCCCOc1ccc(C(=O)O)cc1 (stereo not given)
OBSERVABLE: Activity
MEASURED_VALUE: 44

MOLECULE: CCSCCCCCCCCCCCOc1ccc(C(=O)OC)cc1
OBSERVABLE: Activity
MEASURED_VALUE: 65

MOLECULE: CCCCCCCCCCCC(O)C(O)CCCOc1ccc(C(=O)O)cc1 (stereo not given)
OBSERVABLE: Activity
MEASURED_VALUE: 55

MOLECULE: CCCCSCCCCCCCCCCCOc1ccc(C(=O)O)cc1
OBSERVABLE: Activity
MEASURED_VALUE: 60

MOLECULE: CCSCCCCCCCCCCCOc1ccc(C(=O)O)cc1
OBSERVABLE: Activity
MEASURED_VALUE: 48

###

Listing of recorded Activity by entry.
# Species: Rattus norvegicus
# ASSAY_TEXT: Reduction in sterol level in CFE rat […] in serum at 0.1% of diet treated through diet for 6 days relative to control
# Format: functional
# Set-up: scale not given: the % may be the effect or the level left

SMILES_RECORD: CC(C)=CCC/C(C)=C/CC/C(C)=C/COc1ccc(C(=O)O)cc1
Activity [%]: 87
--
SMILES_RECORD: CCSCCCCCCCCCCCOc1ccc(C(=O)O)cc1
Activity [%]: 76
--
SMILES_RECORD: COC(=O)c1ccc(OCCCCCCCCCCCSC#N)cc1
Activity [%]: 160
--
SMILES_RECORD: O=C(O)c1ccc(OCCCCCCCCCCCO)cc1
Activity [%]: 113
--
SMILES_RECORD: CCSCCCCCCCCCCCOc1ccc(C(=O)OC)cc1
Activity [%]: 100
--
SMILES_RECORD: COC(=O)c1ccc(OCC(=O)C23CC4CC(CC(C4)C2)C3)cc1
Activity [%]: 89

###

Listing of recorded Activity by entry.
# Species: Rattus norvegicus
# ASSAY_TEXT: Reduction in triglyceride level in CFE rat […] in serum at 0.05% of diet treated through diet for 6 days relative to control
# Type: functional
# Set-up: scale not given: the % may be the effect or the level left

COMPOUND: CCCCCCCCCCCCCCCCOc1c(Br)cc(C(=O)OC)cc1Br
Activity / %: 103
--
COMPOUND: CCCCS(=O)(=O)CCCCCCCCCCCOc1ccc(C(=O)O)cc1
Activity / %: 69
--
COMPOUND: O=C(O)c1ccc(OCCCCCCCCCCCCS)cc1
Activity / %: 46
--
COMPOUND: C=CCCCCCCCCCOc1ccc(C(=O)O)cc1
Activity / %: 81
--
COMPOUND: CCCCCCCCCCCC(Cl)CCOc1ccc(C(=O)O)cc1 (centres undefined)
Activity / %: 53
--
COMPOUND: CC[S+]([O-])CCCCCCCCCCCCCCCCOc1ccc(C(=O)O)cc1 (centres undefined)
Activity / %: 80
--
COMPOUND: CCCCCCCCCCCCCC#CCOc1ccc(C(=O)OC)cc1
Activity / %: 66
--
COMPOUND: CCCCNCCCCCCCCCCCOc1ccc(C(=O)OC)cc1
Activity / %: 88
--
COMPOUND: CCCCCCCC/C=C/CCCCCCCCOc1ccc(C(=O)OC)cc1
Activity / %: 86
--
COMPOUND: CCCCCCCCCCCCCC#CCOc1ccc(C(=O)O)cc1
Activity / %: 65
--
COMPOUND: COC(=O)c1ccc(OCC(=O)C23CC4CC(CC(C4)C2)C3)cc1
Activity / %: 82
--
COMPOUND: CCCCCCCCCCCCCCCCOc1c(Cl)cc(C(=O)O)cc1Cl
Activity / %: 89
--
COMPOUND: CCSCCCCCCCCCCCCCCCCOc1ccc(C(=O)O)cc1
Activity / %: 48
--
COMPOUND: CCCCCCCCCCC/C=C/CCCOc1ccc(C(=O)O)cc1
Activity / %: 76
--
COMPOUND: CCCSCCCCCCCCCCCOc1ccc(C(=O)O)cc1
Activity / %: 43
--
COMPOUND: CCCCOCCCCCCCCCCCOc1ccc(C(=O)O)cc1
Activity / %: 67
--
COMPOUND: CC(C)CCCC(C)CCCC(C)CCCC(C)CCOc1ccc(C(=O)O)cc1 (centres undefined)
Activity / %: 104
--
COMPOUND: CC(C)CCCC(C)CCCC(C)CCOc1ccc(C(=O)O)cc1 (centres undefined)
Activity / %: 72
--
COMPOUND: CCCCSCCCCCCCCCCCOc1ccc(C(=O)O)cc1
Activity / %: 53
--
COMPOUND: COCCCCCCCCCCCOc1ccc(C(=O)OC)cc1
Activity / %: 69
--
COMPOUND: CCCCCCCCCCCCC/C=C/COc1ccc(C(=O)O)cc1
Activity / %: 57
--
COMPOUND: CCCCCCCCCCCCCC(CC)Oc1ccc(C(=O)O)cc1 (centres undefined)
Activity / %: 78
--
COMPOUND: C=CCCCCCCCC/C=C/CCCOc1ccc(C(=O)O)cc1
Activity / %: 96
--
COMPOUND: CCOCCCCCCCCCCCOc1ccc(C(=O)O)cc1
Activity / %: 73
--
COMPOUND: COC(=O)c1ccc(OCCCCCCCCCCCSC#N)cc1
Activity / %: 94
--
COMPOUND: CCCCCCCCCCCC1OC1CCCOc1ccc(C(=O)O)cc1 (centres undefined)
Activity / %: 52
--
COMPOUND: CCCCCCCCCCCC(Cl)CCOc1ccc(C(=O)OC)cc1 (centres undefined)
Activity / %: 53
--
COMPOUND: CCCCCCCCCCCCCCCC(C)(C)Oc1ccc(C(=O)O)cc1
Activity / %: 111
--
COMPOUND: O=C(O)c1ccc(OCCCCCCCCCCCO)cc1
Activity / %: 93
--
COMPOUND: CCCCCCCCCCCCCCCCOc1ccc(C(=O)O)cc1
Activity / %: 62
--
COMPOUND: CCCCCCCCCCC/C(CCOc1ccc(C(=O)OC)cc1)=N/O
Activity / %: 43
--
COMPOUND: CCCCCCCCCCCCC(C)(C)Oc1ccc(C(=O)O)cc1
Activity / %: 79
--
COMPOUND: CCCCCCCCCCCCC/C=C\COc1ccc(C(=O)OC)cc1
Activity / %: 83
--
COMPOUND: CCCCCCCCCCCC(S)CCOc1ccc(C(=O)O)cc1 (centres undefined)
Activity / %: 53
--
COMPOUND: CCCCCCCCCCCCCCCCOc1c(I)cc(C(=O)O)cc1I
Activity / %: 86
--
COMPOUND: O=C(O)c1ccc(OCCCCCCCCCCCCCCCSCc2ccccc2)cc1
Activity / %: 50
--
COMPOUND: CCCCCCCCCCC/C=C/CCCOc1ccc(C(=O)OC)cc1
Activity / %: 57
--
COMPOUND: O=C(O)c1ccc(OC2C3CC4CC(C3)CC2C4)cc1 (centres undefined)
Activity / %: 82
--
COMPOUND: O=C(O)c1ccc(OCCCCCCCCCCCCCCCS)cc1
Activity / %: 42
--
COMPOUND: CC(C)=CCC/C(C)=C/CC/C(C)=C/COc1ccc(C(=O)O)cc1
Activity / %: 111
--
COMPOUND: COC(=O)c1ccc(OCC2(C34CC5CC(CC(C5)C3)C4)SCCS2)cc1
Activity / %: 83
--
COMPOUND: CCCCCCCCCCCC(O)CCOc1ccc(C(=O)O)cc1 (centres undefined)
Activity / %: 60
--
COMPOUND: O=C(O)c1ccc(OC2CCCCCCCCCCC2)cc1
Activity / %: 81
--
COMPOUND: CCCCNC(=O)CCCCCCCCCCOc1ccc(C(=O)OC)cc1
Activity / %: 97
--
COMPOUND: CCCCCCCCCCCCCCCCOc1c(C)cc(C(=O)O)cc1C
Activity / %: 79
--
COMPOUND: CCCCCCCCCCCC(CCOc1ccc(C(=O)O)cc1)SCc1ccccc1 (centres undefined)
Activity / %: 79
--
COMPOUND: CCCCCCCCCCCC(C)(C)Oc1ccc(C(=O)O)cc1
Activity / %: 80
--
COMPOUND: CCCCCCCCCCCCC(CCC)Oc1ccc(C(=O)O)cc1 (centres undefined)
Activity / %: 62
--
COMPOUND: CCCCCCCCCCCCCCCCOc1ccc(C(=O)O)cc1[N+](=O)[O-]
Activity / %: 120
